experiment.description: chemical genetic growth profiling, strain panel (AID 1159580);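 further: tested at 20 µM; growth read once vehicle control cultures reached saturation at 30 °C; 1 = growth at the plate median or of vehicle wells; lower values mean less growth of the strain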
protocol.conditions: S. cerevisiae deletion strains, growth OD, locus YJR043C, strain POL32
In all, about 5,500 compounds went through this assay and about 2,000 (36%) were called active. About 18% were inconclusive and are not listed. No stated cut-off is given here; in the data, active means normalized growth mostly below about 0.91 (no sharp cut-off); inconclusive means no clear call, values can overlap the other calls; inactive means mostly above about 0.92. The list shows a part of the results.
Pick one: 1.0 (active), 0.0 (inactive)

Please review the entries below; each comes with its answer.
| molecule | classification |
| --- | --- |
| CC(=O)NCCCCCC(=O)O | 0.0 |
| NC(=NCCC[C@H](N)C(=O)O)NC(CCC(=O)O)C(=O)O (some centres not stated) | 0.0 |
| COc1cc(C(=O)NCc2ccc(OCCN(C)C)cc2)cc(OC)c1OC | 0.0 |
| CN(C)CCOC(C)(c1ccccc1)c1ccccn1 (configuration not stated) | 0.0 |
| CCN(CC)CCOc1ccc2c(c1)C(=O)c1cc(OCCN(CC)CC)ccc1-2 | 0.0 |

Q: Recorded call for `Cc1oc(S(=O)(=O)N(C)C)cc1C(=O)O` ?
Result: 0.0

Q: Recorded call for `CCCCC1=NC2(CCCC2)C(=O)N1Cc1ccc(-c2ccccc2-c2nn[nH]n2)cc1` ?
Result: 0.0

Q: Recorded call for `CC(C)(C)NS(=O)(=O)NC(C)(C)C` ?
Result: 0.0

Q: Recorded call for `CN(C)C=Nc1nnc(Sc2ncccc2[N+](=O)[O-])s1` ?
Result: 0.0

Q: Recorded call for `CC/C(=C(\c1ccccc1)c1ccc(OCCN(C)C)cc1)c1ccccc1` ?
Result: 1.0

Q: Recorded call for `O=C(NNC(=S)Nc1ccc(F)cc1)c1ccccc1Cl` ?
Result: 0.0

Q: Recorded call for `Cc1c(Cl)cccc1NC(=S)Nc1ccc(Cl)cc1C(=O)c1ccccc1` ?
Result: 0.0
